EXPERIMENTAL_PROTOCOL: human hepatoma cell viability loss – ATP luminescence, cytotoxicity control for P. falciparum antimalarial project, primary screen (AID 2303);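 further: 0% = DMSO wells and 100% = digitonin-killed cells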
RUN_CONDITIONS: HepG2 viability, 24-48 h, at 10 µM
Activity calls are given as the source filed them.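 How the source made its calls: active means inhibition above 50%; inactive means the rest.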
Labels: 1.0 for active, 0.0 for inactive

                                    compound  qualitative_label
 0  COc1ccc(CNC2Cc3ccccc3C2)cc1-c1ccc(S(=O)(=O)NCCN2CCCC2)s1                1.0
 1      N/C(=N\c1ncccn1)Nc1cccc(Cc2ccccc2)n1                1.0
 2  c1cncc(Oc2ccc(Nc3ccnc4cc(-c5cccc(CN6CCCCC6)c5)ccc34)cc2)c1                0.0
 3  COc1cc(Cn2ccc3c4c(N)nc(N)nc4ccc32)cc(OC)c1OC                1.0
 4  CCc1cc2c(=O)c(-c3nc(C)cs3)c([C@H](N)Cc3ccc(O)cc3)oc2cc1O                0.0
 5  Cc1cccc2[nH]c(-c3ccc(-c4cccc(CN5CC(C)OC(C)C5)c4)s3)nc12 (centres undefined)                0.0
 6  Cc1cc(C(F)(F)F)n2nc(C(=O)N(Cc3cncn3Cc3ccccc3F)CC3CC3)cc2n1                0.0
 7  COc1cccc(NC(=O)Nc2c(-c3cccc(C(F)(F)F)c3)c(C(F)(F)F)nn2C)c1                0.0
 8  FC(F)(F)c1cccc(CNCC2CCN(Cc3ccc4c(c3)OCO4)CC2)c1                0.0
 9     Cc1cc(C)c(CON2C(N)=NC(N)=NC2(C)C)cc1C                1.0
10  CC(=O)NCCNc1nccc(N2CCc3ncnc(Nc4ccc(OCc5cccc(F)c5)c(Cl)c4)c3C2)n1                0.0
11  CC(=O)c1cccc(Nc2nc3c(C#N)c(OCc4cc(Cl)cc(Cl)c4)ccc3[nH]2)c1                0.0
12  Cc1noc(C)c1-c1ccc2c(Nc3ccc(Cl)cc3)c(C(N)=O)cnc2c1                0.0
13  CS(=O)(=O)CCNc1cc(N2CCc3ncnc(Nc4ccc(OCc5cccc(F)c5)c(Cl)c4)c3C2)ncn1                0.0
14  Cn1cncc1C(=O)Nc1cccc(-c2cccc(-c3nc4ccc(C(F)(F)F)cc4[nH]3)c2)c1                0.0
15  CCN(CCCN1CCCCC1)c1cc(C)nc(Nc2ccc(C)cc2C(F)(F)F)n1                0.0
16  CC(C)c1ccc(Nc2nc(NCCc3cnc[nH]3)nc(NCc3ccccc3)n2)cc1                0.0
17  Cc1[nH]c(C)c(-c2ccc(C(=O)c3ccc(Cl)cc3)cc2)c(=O)c1Cl                0.0
18  CC(CN(C)C)C(=O)Nc1cccc(-c2ccc(-c3nc4ccc(F)cc4[nH]3)s2)c1 (centres undefined)                0.0
19  COc1ccc(S(=O)(=O)N2CCCc3ccc(Br)cc32)cc1N1CCN(C(=O)C(Cl)(Cl)Cl)CC1                0.0
20  CCN1CCN(c2ccc(Nc3ccnc4ccc(Br)cc34)cc2)CC1                0.0
21  CC(C)Sc1nc2c(c(=O)n1CCc1ccccc1)C1(CCCC1)Cc1ccccc1-2                0.0
22  O=C(C1CCN(c2nnnn2-c2ccccc2)CC1)N1CCc2ccccc2C1                0.0
23  FC(F)(F)c1cccc(CCNc2nccc(NCc3ccc(Cl)cc3Cl)n2)c1                0.0
24  Cc1cc(N(C)C)nc(Nc2ccc(NC(=O)c3c(F)cccc3F)cc2)n1                1.0
25  CC(C)(Oc1ccc(Cl)cc1)C(=O)NCCC1CCN(CCCCCNC(=O)/C=C/c2ccc(Cl)c(Cl)c2)CC1                1.0
26  CN(CCCN(C)c1cc(NC(=O)c2cccc(F)c2)ccn1)Cc1cccc(O)c1                0.0
27        Cc1cc(N)cc2[nH]c(-c3ccc(N)cc3)nc12                0.0
28  O=C(/C=C/c1ccc([N+](=O)[O-])cc1)N1CCC(NS(=O)(=O)c2cccc(C(F)(F)F)c2)CC1                0.0
29  COc1ccc2nc(C)cc(Nc3ccc(Oc4ccc(Cl)c5ccccc45)c(Cl)c3)c2c1                1.0
30  Cc1cc(OCC2CCN(c3ccc(C(=O)NC4CC4)cn3)CC2)ccc1F                0.0
31  Cc1cc(N2CCOCC2)nc2ccc(NC(=O)c3cccc([N+](=O)[O-])c3)cc12                0.0
32  O=C(NCCN1CCCC1)c1ccc(-c2cccc(-c3nc4ccc(F)cc4[nH]3)c2)cc1                0.0
33  CCCCCC(C)c1cc(O)c2c(c1)OC(C)(C)C=C2C1=CCN(Cc2ccccc2)CC1 (centres undefined)                0.0
34  COC(=O)CCn1c(C2CCN(CC3CCC(NC(=O)/C=C/c4ccc(Cl)c(Cl)c4)CC3)CC2)nc2ccccc21 (centres undefined)                0.0
35  O=C1C=Cc2ccccc2/C1=C/c1sc(=NCc2ccccc2)n(Cc2ccccc2)c1O                0.0
36  O=C(Nc1ccccc1C(F)(F)F)Nc1nn(Cc2c(F)cccc2Cl)cc1Br                0.0
37  COc1ccc(Cn2c(=O)[nH]c3cc(C(=O)NC4CCN(Cc5ccccc5)CC4)ccc3c2=O)cc1                0.0
38  N#Cc1cncc(-c2nc3c(N4CCC(Cc5ccccc5)CC4)cccc3n2CCNCc2ccccc2)c1                0.0

###

EXPERIMENTAL_PROTOCOL: antimalarial activity against Dd2 strain (AID 2302);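 further: 0% = DMSO untreated growth and 100% = chloroquine plus artemisinin killed control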
RUN_CONDITIONS: P. falciparum Dd2 in RBCs, LDH growth readout, 72 h; at 2 µM
Active and inactive are the calls of the source.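 How the source made its calls: active means growth inhibition above 50% at the single 2 µM test dose, taken to imply half-maximal potency below 2 µM; inactive means the rest.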
Possible outcomes: active, inactive

In [3]: df
Out[3]:
                                   compound  qualitative_label
0  Cc1ccc(C2=NNC3(S2)C(=O)Nc2ccc(C)cc23)cc1 (stereo not given)             active
1  Cc1cccc2[nH]c(-c3ccc(-c4ccc(CN5CCOCC5)cc4)cc3)nc12             active
2               CC(=Nc1ccc(Cl)c(Cl)c1)N(C)C           inactive
3  Cc1cc(F)ccc1-c1nc(NCCCNCCc2ccccc2)nc2c1ccc(=O)n2-c1c(F)cccc1F             active
4  CS(=O)(=O)NCCCNCc1cccc(-c2cccc(-c3nc4ccc(F)cc4[nH]3)c2)c1           inactive

###

EXPERIMENTAL_PROTOCOL: antimalarial activity against Dd2 strain (AID 2302);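 further: 0% = DMSO untreated growth and 100% = chloroquine plus artemisinin killed control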
RUN_CONDITIONS: P. falciparum Dd2 in RBCs, LDH growth readout, 72 h; at 2 µM; active compounds read high
PROPERTY_LABEL: growth inhibition (%)

>>> df
                                    compound  unit_abbrev  endpoint_value
 0   CCNC(=O)Nc1ccc(N(C)c2ccnc(NC3CC3)n2)cc1            %              80
 1  N#CCCN1CCN(Cc2ccc(-c3ccc(-c4nc5ccc(F)cc5[nH]4)s3)cc2)CC1            %              38
 2         CC(=NN=C(N)N)c1ccc2ccc3ccccc3c2c1            %              23
 3  COc1ccc(NC(=O)CCNc2ccnc(NCCc3ccc(F)cc3)n2)cc1            %               5
 4          CCCCCCCn1c2c(c(=N)c3c1CCC3)CCCC2            %              98
 5  CC(=O)c1ccc(NC(=O)CSc2nc(-c3ccccc3Cl)ns2)cc1            %              72
 6  O=C(Nc1cccc(OC2CCN(Cc3ccccc3)CC2)c1)c1ccc([N+](=O)[O-])cc1            %               2
 7  O=C(/C=C/c1ccc(Cl)c(Cl)c1)NC1CCC(CN2CCC(c3cc4ccccc4[nH]3)CC2)CC1 (stereo not given)            %              -7
 8        NC(N)=NCCCN(Cc1ccccc1)c1ccc(Cl)cc1            %              98
 9  COc1cc2nc(N(C)CC3COc4ccccc4O3)nc(N)c2cc1OC (stereo not given)            %              26
10  CCCC(CNC(=O)c1cc2c(Cl)cc(Cl)cc2[nH]1)CNc1cc(=O)c2ccccc2[nH]1 (stereo not given)            %              94
11  Cc1cc(C2CCN(CCCCNC(=O)c3ccc(NC(=O)c4ccc(Cl)cc4)cc3)CC2)c(C)cc1OCc1ccncc1            %              92
12  Cc1cc(NC(=O)Nc2ccc(N(C)C)cc2)c2cc(Cl)ccc2n1            %              50
13  c1ccc(CN2CCC(NCc3ccccc3-c3cccc(CNC4CCCC4)c3)CC2)cc1            %              59
14  Cc1cccc2[nH]c(-c3ccc(-c4cccc(NC(=O)Nc5ccccc5)c4)cc3)nc12            %              14
15         NC(N)=NC(=O)Nc1cc(Cl)c(Cl)c(Cl)c1            %             100
16  Cn1nc(-c2ccc(Cl)cc2)c2cc(C(=O)NCCN3CCOCC3)sc21            %              29
17  COc1cc(F)c2ncc(Cl)c([C@@H](O)CN3CCC(NCc4ccc5c(n4)NC(=O)CO5)CC3)c2c1            %             100
18  c1cc(-c2ccc(CN3CCCCC3)cc2)cc(-c2nc3ccccc3[nH]2)c1            %              79
19  CN1CCN(CCCN(Cc2cccc(-c3ccc(CNC4CCCC4)cc3)c2)C(=O)CCC2CCCC2)CC1            %              84
20  CCc1ccccc1N1CCN(CCCC(=O)c2ccc(NC(=O)c3cc(Cl)cc(Cl)c3)cc2)CC1            %              46
21  N#Cc1ccc2[nH]cc(CN3CCC4(CC3)CN(CCNCc3ccccc3)C(=O)O4)c2c1            %               0
22  CN(C)c1ccc(CN2CCC(NC(=O)c3ccc(-c4cccc(F)c4)s3)CC2)cc1            %              18
23  Cc1ccccc1C1CCN(C2CCC(NC(=O)/C=C/c3cccc(F)c3F)CC2)CC1 (stereo not given)            %              45
24  CCN(CC)CCN(Cc1ccc(-c2ccc(C(F)(F)F)cc2)cc1)C(=O)Cn1c(CCc2c(F)cccc2F)nc(=O)c2ccccc21            %              61
25  O=C(Nc1ccccc1C(F)(F)F)Nc1nn(Cc2c(F)cccc2Cl)cc1Br            %              86
26  c1ccc(CN2CCC(NCc3ccccc3-c3cccc(CNCc4ccc5c(c4)OCO5)c3)CC2)cc1            %              69
27  CCn1nc(C(=O)NC2CCOc3ccccc32)c2ccccc2c1=O (stereo not given)            %              59
28      Cc1ccc(-c2ccc(Cl)cc2Oc2cnc(N)nc2N)o1            %               3
29  CNC(=O)c1cnc(Nc2ccc(N3CCN(C)CC3)c(C)c2)nc1NC            %              38
30  CCOc1cc(Cc2cnc(N)nc2N)cc(OCC)c1OCCCCC(=O)OC            %               0
31  COc1ccc2nccc(NC(=O)C3(O)CCC(NCc4ccc5c(c4)NCCS5)CC3)c2n1 (stereo not given)            %              64
32       CC(C)Cc1c(O)nc(SCCN2CCOCC2)[nH]c1=O            %              -5
33  Cc1ccc(Nc2nccc(NCC(O)c3cccc(C)c3)n2)cc1 (stereo not given)            %              23
34  COc1ccc2nccc([C@@H](O)CN3CCC(NC(=O)c4ccc(OC)c(N)c4)CC3)c2c1            %               0
35  CC(C)(C)OC(=O)NCc1ccc(Nc2nnc(-c3cccc(OCC(=O)NCc4cc(C(F)(F)F)cc(C(F)(F)F)c4)c3)o2)cc1            %              19
36  COc1cccc(C(=O)Nc2ccc(Nc3nc(C)cc(N(C)C)n3)cc2)c1            %              33
37  Nc1nc(N)c2cc(N(Cc3ccccc3)Cc3ccccc3)ccc2n1            %              88
38  COc1cc(NC(=O)c2cc([N+](=O)[O-])ccc2NC(=O)CNC2CCCC(C)C2C)cc(OC)c1 (stereo not given)            %              80
39  COc1cccc(CNC(=O)c2ccnc(-c3ccc(CNCCOc4ccccc4)cc3)c2)c1            %              10
